Sourced from patent US7585895B2

# MEASURED_ON: EP4 receptors (Homo sapiens)
# Construct: expressed in transfected cells; membrane pellet
# Sequence (P35408 whole entry): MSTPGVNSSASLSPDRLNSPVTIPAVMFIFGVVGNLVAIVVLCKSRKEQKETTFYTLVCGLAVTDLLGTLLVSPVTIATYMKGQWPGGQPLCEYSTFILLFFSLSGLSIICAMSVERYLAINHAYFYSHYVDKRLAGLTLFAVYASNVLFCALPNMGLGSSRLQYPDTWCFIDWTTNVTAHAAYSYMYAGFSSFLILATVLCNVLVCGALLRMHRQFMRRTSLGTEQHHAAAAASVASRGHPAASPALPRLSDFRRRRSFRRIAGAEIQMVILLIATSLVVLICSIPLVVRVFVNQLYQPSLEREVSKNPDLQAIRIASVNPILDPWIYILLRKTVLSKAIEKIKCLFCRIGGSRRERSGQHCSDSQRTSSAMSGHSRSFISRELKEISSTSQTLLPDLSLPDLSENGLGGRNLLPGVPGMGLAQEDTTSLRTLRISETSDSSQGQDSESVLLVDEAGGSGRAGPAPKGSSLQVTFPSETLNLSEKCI
# TEST_METHOD_NOTES: Radioligand binding, [3H]PGE2, EP4 (Ki)
# EXPERIMENTAL_PARAMETERS: HEK-293 cells stably expressing EP4, [3H]PGE2
# Experimental: HEK-293 cells stably expressing the human or feline FP receptor, or EP1, EP2, or EP4 receptors were washed with TME buffer, scraped from the bottom of the flasks, and homogenized for 30 sec using a Brinkman PT 10/35 polytron. […] The cell homogenate was centrifuged at 19000 r.p.m. for 20 min at 4° C using a Beckman Ti-60 rotor. The resultant pellet was resuspended in TME buffer to give a final 1 mg/ml protein concentration, as determined by Biorad assay. […]
RESULT_TYPE: Ki (nM)

Sample answers from the record:
COMPOUND | MEASUREMENT_UNIT | Ki
O=C(O)CCC/C=C\C[C@@H]1[C@@H](c2ccc(C(O)CCC3CCCCC3)cc2)[C@H](O)C[C@H]1Cl (some centres unmarked) | nM | 3810
CCCCC(O)C(C)(C)c1ccc([C@@H]2[C@@H](C/C=C\CCCC(=O)O)[C@H](Cl)C[C@H]2O)cc1 (mixture of isomers) | nM | 9640
CCCCCCC(O)c1ccc([C@@H]2[C@@H](C/C=C\CCCC(=O)O)[C@H](Cl)C[C@H]2O)cc1 (some centres unmarked) | nM | 2260
O=C(O)CCCCCC[C@@H]1[C@@H](c2ccc(C(O)CCC3CCCCC3)cc2)[C@H](O)C[C@H]1Cl (some centres unmarked) | nM | 5580

a. O=C(O)CCC/C=C\C[C@@H]1[C@@H](c2ccc(C(O)CC3CCCCC3)cc2)[C@H](O)C[C@H]1Cl (mixture of isomers)
b. CC(C)(C)CCCC(O)c1ccc([C@@H]2[C@@H](C/C=C\CCCC(=O)O)[C@H](Cl)C[C@H]2O)cc1 (some centres unmarked)
Prompt: Sorting by Ki in descending order, would a or b appear first? // caller expects the label of the chosen entry
Completion: a
